target: ErbB2 insYVMA (HER2-YVMA, SEQ ID NO: 2) (Homo sapiens, UniProt P04626, INS775YVMA/P1170A); assay: biochemical; conditions: ErbB2 insYVMA enzyme assay; read-out: Assay 1 IC50
Sequence (P04626 with tags, fused parts or gaps INS775YVMA/P1170A limits assumed): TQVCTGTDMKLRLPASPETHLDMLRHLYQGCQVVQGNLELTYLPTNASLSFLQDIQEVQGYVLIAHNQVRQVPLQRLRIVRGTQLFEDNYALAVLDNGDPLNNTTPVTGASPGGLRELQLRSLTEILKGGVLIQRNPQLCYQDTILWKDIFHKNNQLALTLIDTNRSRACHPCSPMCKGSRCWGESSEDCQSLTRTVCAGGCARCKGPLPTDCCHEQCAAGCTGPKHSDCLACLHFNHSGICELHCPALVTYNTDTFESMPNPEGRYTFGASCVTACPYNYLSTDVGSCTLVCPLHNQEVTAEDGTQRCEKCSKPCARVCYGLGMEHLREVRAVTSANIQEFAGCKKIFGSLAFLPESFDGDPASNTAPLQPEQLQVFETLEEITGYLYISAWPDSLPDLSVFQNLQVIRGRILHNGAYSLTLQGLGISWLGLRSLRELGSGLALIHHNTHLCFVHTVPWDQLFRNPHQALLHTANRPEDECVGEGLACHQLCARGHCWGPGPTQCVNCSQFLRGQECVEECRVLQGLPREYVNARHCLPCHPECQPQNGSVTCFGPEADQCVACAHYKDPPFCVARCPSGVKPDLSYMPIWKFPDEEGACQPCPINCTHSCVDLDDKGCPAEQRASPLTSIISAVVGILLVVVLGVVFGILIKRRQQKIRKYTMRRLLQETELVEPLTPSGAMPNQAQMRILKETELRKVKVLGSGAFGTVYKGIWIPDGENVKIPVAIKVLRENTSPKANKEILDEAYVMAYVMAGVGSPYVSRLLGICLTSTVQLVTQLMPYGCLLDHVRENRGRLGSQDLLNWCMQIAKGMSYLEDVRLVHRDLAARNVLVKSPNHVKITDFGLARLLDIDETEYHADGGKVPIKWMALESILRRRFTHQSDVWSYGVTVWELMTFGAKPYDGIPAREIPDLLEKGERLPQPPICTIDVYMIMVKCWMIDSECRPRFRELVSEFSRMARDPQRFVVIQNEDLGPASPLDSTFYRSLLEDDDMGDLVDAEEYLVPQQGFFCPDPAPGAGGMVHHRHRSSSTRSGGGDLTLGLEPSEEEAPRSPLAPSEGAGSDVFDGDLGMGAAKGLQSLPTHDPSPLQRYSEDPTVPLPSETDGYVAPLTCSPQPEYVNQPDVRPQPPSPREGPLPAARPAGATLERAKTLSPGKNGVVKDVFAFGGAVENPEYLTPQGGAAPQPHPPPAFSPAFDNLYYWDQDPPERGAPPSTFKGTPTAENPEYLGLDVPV
Measure Name: pIC50
Conceptually, pIC50 converts a concentration in mol/L into minus its log10.

-- ask Give me measured pIC50, please, for this compound: Cc1cc(Nc2ncnc3cnc(N[C@@H]4CCN(C)C[C@@H]4F)nc23)ccc1Oc1ccc2c(c1)ncn2C [Example 84]
-- reply 7.85

-- ask Give me measured pIC50, please, for this compound: CON1CCN(c2ncc3ncnc(Nc4cc(C)c(Oc5ccc6c(c5)ncn6C)cc4F)c3n2)CC1 [Example 486]
-- reply 7.53

From: patent US11834453B2
